Target: T1, SEMG2(354-403) fragment (human)
T1 peptide: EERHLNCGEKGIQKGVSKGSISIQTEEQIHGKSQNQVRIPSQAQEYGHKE
Assay: ELISA, immobilized antigen SEMG2 (354-403)
reported.endpoint: binding result

binder="MM07 (antibody, V domains shown, The VH and VL begin with what look like leader peptides (MDWLW..., MVSSAQ...)) VH: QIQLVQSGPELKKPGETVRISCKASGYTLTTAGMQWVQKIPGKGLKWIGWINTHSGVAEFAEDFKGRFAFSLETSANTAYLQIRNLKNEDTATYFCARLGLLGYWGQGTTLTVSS VL: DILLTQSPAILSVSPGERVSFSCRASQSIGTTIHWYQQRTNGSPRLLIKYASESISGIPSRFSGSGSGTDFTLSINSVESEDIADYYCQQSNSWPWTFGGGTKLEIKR" reported_endpoint="binding result" reported_measurement="no binding"
binder="MM02 (antibody, IgG2b, V domains shown) VH: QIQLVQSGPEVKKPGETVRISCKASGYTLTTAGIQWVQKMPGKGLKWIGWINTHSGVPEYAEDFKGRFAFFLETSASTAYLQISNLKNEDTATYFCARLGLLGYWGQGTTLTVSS VL: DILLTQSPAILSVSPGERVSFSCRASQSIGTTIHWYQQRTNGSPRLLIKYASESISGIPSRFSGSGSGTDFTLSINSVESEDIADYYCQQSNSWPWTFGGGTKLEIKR" reported_endpoint="binding result" reported_measurement="no binding"
binder="MM05 (antibody, IgG1, V domains shown) VH: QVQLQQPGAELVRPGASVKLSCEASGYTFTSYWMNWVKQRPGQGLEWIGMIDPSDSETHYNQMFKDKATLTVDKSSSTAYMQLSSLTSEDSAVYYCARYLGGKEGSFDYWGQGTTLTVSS VL: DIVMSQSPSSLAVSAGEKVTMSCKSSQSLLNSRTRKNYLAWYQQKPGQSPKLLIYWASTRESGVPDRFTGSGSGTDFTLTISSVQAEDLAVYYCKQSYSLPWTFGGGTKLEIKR" reported_endpoint="binding result" reported_measurement="no binding"
